assay: Mouse i.v. blood pharmacokinetic study; assay type: in vivo, female CD-1 mice; details: mouse, iv; blood; i.v. 1 mg kg^−1; female CD-1 mice

# STRUCTURE, AUC(0-inf)
records = [
    ("O=C(NCS(=O)(=O)O)Nc1ccccc1-c1nc2ccccc2s1", "1460 nM·h"),
]

* * *

assay: Mouse plasma protein binding (rapid equilibrium dialysis) with plasma stability; type: in vitro ADME; settings: mouse, 4 h, 2 µM

# MOLECULE, UNIT ABBREV, Plasma stability
data = [
    ("O=C(O)CNC(=O)Nc1ccc(C(F)(F)F)cc1", "%", 96),
    ("O=C(NCS(=O)(=O)O)Nc1ccccc1-c1nc2ccccc2s1", "%", 92),
    ("O=C(NCS(=O)(=O)O)Nc1ccc(C(F)(F)F)cc1 [SSA 1]", "%", 94),
    ("O=C(NCCCS(=O)(=O)O)Nc1ccc(C(F)(F)F)cc1", "%", 93),
    ("O=C(NCS(=O)(=O)O)Nc1ccc(C(F)(F)F)cc1 [SSA 3]", "%", 89),
    ("Cc1ccc2nc(-c3ccc(NC(=O)NCCCS(=O)(=O)O)cc3)sc2c1", "%", 89),
    ("Cc1ccc2nc(-c3ccc(NC(=O)NCS(=O)(=O)O)cc3)sc2c1", "%", 90),
]

* * *

test: Mouse plasma protein binding (rapid equilibrium dialysis) with plasma stability; format: in vitro ADME; details: mouse, plasma, PPB
Each record here notes measured fraction unbound at 4 h, 2 µM.
REPORTED PROPERTY: fraction unbound at 4 h, 2 µM

# STRUCTURE, REPORTED PROPERTY, RELATION OPERATOR, OBSERVED VALUE
rows = [
    ("O=C(NCCCS(=O)(=O)O)Nc1ccc(C(F)(F)F)cc1", "fraction unbound at 4 h, 2 µM", "=", 0.166),
    ("O=C(NCS(=O)(=O)O)Nc1ccccc1-c1nc2ccccc2s1", "fraction unbound at 4 h, 2 µM", "<", 0.003),
    ("Cc1ccc2nc(-c3ccc(NC(=O)NCS(=O)(=O)O)cc3)sc2c1", "fraction unbound at 4 h, 2 µM", "=", 0.007),
    ("O=C(O)CNC(=O)Nc1ccc(C(F)(F)F)cc1", "fraction unbound at 4 h, 2 µM", "=", 0.328),
    ("Cc1ccc2nc(-c3ccc(NC(=O)NCCCS(=O)(=O)O)cc3)sc2c1", "fraction unbound at 4 h, 2 µM", "=", 0.007),
    ("O=C(NCS(=O)(=O)O)Nc1ccc(C(F)(F)F)cc1", "fraction unbound at 4 h, 2 µM", "=", 0.25),
]

* * *

Experiment: Mouse i.v. blood pharmacokinetic study
Format: in vivo, female CD-1 mice
Conditions: mouse, blood, iv; elimination half-life; i.v. 1 mg kg^−1; female CD-1 mice
Description: Within these studies SSAs 3 and 5 were dosed at 1 mg kg^−1, to female CD-1 mice (n = 9 per SSA) via an intravenous tail vein bolus dose formulation as solutions in 2% DMSO/98% water. Blood taken from the mouse tail vein was extracted by protein precipitation and SSA concentration calculated. […] For the purpose of PK determination of SSA 5, samples were analysed using a Waters I-Class ultra- high-performance liquid chromatography (UHPLC) system coupled to a Waters Xevo TQ-XS mass spectrometer. […]

# COMPOUND, half-life [min]
rows = [
    ("O=C(NCS(=O)(=O)O)Nc1ccccc1-c1nc2ccccc2s1 [SSA 5]", 42),
]

* * *

assay: Mouse i.v. blood pharmacokinetic study; assay type: in vivo, female CD-1 mice; conditions: mouse, iv; blood; i.v. 1 mg kg^−1; female CD-1 mice
REPORTED PROPERTY: Tmax (min)

# STRUCTURE, OBSERVED VALUE
measured = [
    ("O=C(NCS(=O)(=O)O)Nc1ccc(C(F)(F)F)cc1", 4.98),
    ("O=C(NCS(=O)(=O)O)Nc1ccccc1-c1nc2ccccc2s1", 4.98),
]

* * *

test: Satellite terminal tissue sampling after i.v. dosing; type: in vivo; details: CD-1, mouse, lung, iv, 1 mg kg^−1; 0.5 h post i.v. dosing; n = 3 mice; read-out: Concentration of SSA in lung
The reader will find reported concentration at 0.5 h values listed item by item below.
REPORTED PROPERTY: concentration at 0.5 h (nM)

# STRUCTURE, OBSERVED VALUE
data = [
    ("O=C(NCS(=O)(=O)O)Nc1ccccc1-c1nc2ccccc2s1", 153),
    ("O=C(NCS(=O)(=O)O)Nc1ccc(C(F)(F)F)cc1", 86),
]

* * *

experiment: Caco-2 permeability assay; type: in vitro ADME, human; details: human, Caco-2, % SSA recovered from the assay after 2 hours; read-out: Recovery (B-A)

# STRUCTURE, UNIT ABBREV, recovery at 120 min, 10 µM
data = [
    ("Cc1ccc2nc(-c3ccc(NC(=O)NCS(=O)(=O)O)cc3)sc2c1", "%", 86),
    ("O=C(NCS(=O)(=O)O)Nc1ccc(C(F)(F)F)cc1", "%", 101),
    ("Cc1ccc2nc(-c3ccc(NC(=O)NCCCS(=O)(=O)O)cc3)sc2c1", "%", 95),
    ("O=C(NCS(=O)(=O)O)Nc1ccccc1-c1nc2ccccc2s1", "%", 107),
    ("O=C(O)CNC(=O)Nc1ccc(C(F)(F)F)cc1", "%", 96),
    ("O=C(NCCCS(=O)(=O)O)Nc1ccc(C(F)(F)F)cc1", "%", 102),
]

* * *

Catalogue of increase in FP, PC values
tested on: PC lipid vesicles; assay: Synthetic phospholipid vesicle membrane binding assay (fluorescence polarisation), PC vesicles; conditions: lipid vesicles added to SSA (0.15 mM); n = 3; error = standard error; SSA alone set to 100 mP

# STRUCTURE, increase in FP, PC [mP]
records = [
    ("Cc1ccc2nc(-c3ccc(NC(=O)NCS(=O)(=O)O)cc3)sc2c1", 47),
    ("Cc1ccc2nc(-c3ccc(NC(=O)NCCCS(=O)(=O)O)cc3)sc2c1", 26),
    ("Cc1ccc2nc(-c3ccc(NC(=S)NCS(=O)(=O)O)cc3)sc2c1", 163),
    ("Cc1ccc2nc(-c3ccc(NC(=O)NCCC(=O)O)cc3)sc2c1", 35),
    ("O=C(NCS(=O)(=O)O)Nc1ccccc1-c1nc2ccccc2s1", 87),
    ("Cc1ccc2nc(-c3ccc(NC(=O)NCC(=O)O)cc3)sc2c1", 68),
    ("O=C(NCS(=O)(=O)O)Nc1ccc(-c2nc3ccccc3s2)cc1", 35),
]

* * *

experiment: Mouse i.v. blood pharmacokinetic study; format: in vivo, female CD-1 mice; conditions: mouse, blood, iv; i.v. 1 mg kg^−1; female CD-1 mice; SSA 3 derived based on AUC0–7h
# Lookup of reported Vd keyed by entry
REPORTED PROPERTY: Vd

# COMPOUND, OBSERVED VALUE
data = [
    ("O=C(NCS(=O)(=O)O)Nc1ccccc1-c1nc2ccccc2s1 [SSA 5]", "0.9 L/kg"),
    ("O=C(NCS(=O)(=O)O)Nc1ccc(C(F)(F)F)cc1 [SSA 3]", "0.8 L/kg"),
]

* * *

Below is a list of entries, each paired with its recorded recovery at 120 min, 10 µM value.
test: Caco-2 permeability assay; format: in vitro ADME, human; conditions: human, Caco-2, % SSA recovered from the assay after 2 hours; read-out: Recovery (A-B)

# MOLECULE, recovery at 120 min, 10 µM (%)
records = [
    ("O=C(NCCCS(=O)(=O)O)Nc1ccc(C(F)(F)F)cc1 [SSA 2]", 97),
    ("Cc1ccc2nc(-c3ccc(NC(=O)NCCCS(=O)(=O)O)cc3)sc2c1 [SSA 10]", 54),
    ("Cc1ccc2nc(-c3ccc(NC(=O)NCS(=O)(=O)O)cc3)sc2c1 [SSA 6]", 59),
    ("O=C(NCS(=O)(=O)O)Nc1ccc(C(F)(F)F)cc1 [SSA 1]", 93),
    ("O=C(O)CNC(=O)Nc1ccc(C(F)(F)F)cc1 [SSA 4]", 93),
    ("O=C(NCS(=O)(=O)O)Nc1ccccc1-c1nc2ccccc2s1 [SSA 5]", 79),
]
